- assay.notes: Short-term stability in spiked pooled human plasma (bench-top, 4 °C, 56 °C)
- condition.description: validation standard MOV
experimental.readout: Short-time stability (24h, RT, with daylight) Accuracy [%] (%)

compound	reading
CCOc1cc2ncc(C#N)c(Nc3ccc(OCc4ccccn4)c(Cl)c3)c2cc1NC(=O)/C=C/CN(C)C	37.9
COc1cc2nccc(Oc3ccc(NC(=O)C4(C(=O)Nc5ccc(F)cc5)CC4)cc3)c2cc1OC [Cabozantinib]	104.9
CNC(=O)c1ccccc1Sc1ccc2c(/C=C/c3ccccn3)n[nH]c2c1	116.9

----------
- assay.notes: Long-term stability in spiked pooled human plasma
- condition.description: validation standard LLOV
# Long-term stability, 2 month, -20°C Accuracy [%] >= 70% gives MET, anything below gives NOT MET

compound	class.label
O=C1CCC(N2C(=O)c3ccccc3C2=O)C(=O)N1 (centres unmarked) [Thalidomide]	NOT MET
CNC(=O)c1ccc(N2C(=S)N(c3cnc(C#N)c(C(F)(F)F)c3)C(=O)C23CCC3)cc1F [Apalutamide]	MET
Cn1cnc2c(F)c(Nc3ccc(Br)cc3F)c(C(=O)NOCCO)cc21 [Binimetinib]	MET
C[C@@H](Oc1cc(-c2cnn(C3CCNCC3)c2)cnc1N)c1c(Cl)ccc(F)c1Cl [Crizotinib]	MET
Cc1[nH]c2ccccc2c1CCNCc1ccc(/C=C/C(=O)NO)cc1 [Panobinostat]	NOT MET
Nc1cccc2c1CN(C1CCC(=O)NC1=O)C2=O (centres unmarked) [Lenalidomide]	NOT MET
Cc1ccc(Nc2nccc(N(C)c3ccc4c(C)n(C)nc4c3)n2)cc1S(N)(=O)=O [Pazopanib]	MET
CC1(C)CCC(CN2CCN(c3ccc(C(=O)NS(=O)(=O)c4ccc(NCC5CCOCC5)c([N+](=O)[O-])c4)c(Oc4cnc5[nH]ccc5c4)c3)CC2)=C(c2ccc(Cl)cc2)C1 [Venetoclax]	MET

----------
- assay.notes: Short-term stability in spiked pooled human plasma (bench-top, 4 °C, 56 °C)
- condition.description: validation standard LLOV
// reported Short-time stability (24h, 4°C, without daylight) Accuracy [%] per item
experimental.readout: Short-time stability (24h, 4°C, without daylight) Accuracy [%] (%)

compound	reading
COc1cc(N2CCC(N3CCN(C)CC3)CC2)ccc1Nc1ncc(Cl)c(Nc2ccccc2P(C)(C)=O)n1	95.0
CNC(=O)c1cc(Oc2ccc(NC(=O)Nc3ccc(Cl)c(C(F)(F)F)c3)c(F)c2)ccn1	83.3
Cc1cn(-c2cc(NC(=O)c3ccc(C)c(Nc4nccc(-c5cccnc5)n4)c3)cc(C(F)(F)F)c2)cn1	96.7
O=C1CCC(N2C(=O)c3ccccc3C2=O)C(=O)N1 (centres unmarked) [Thalidomide]	69.3
O=c1[nH]c(=O)n([C@H]2C[C@H](O)[C@@H](CO)O2)cc1C(F)(F)F	83.6
COC(=O)c1ccc2c(c1)NC(=O)/C2=C(\Nc1ccc(N(C)C(=O)CN2CCN(C)CC2)cc1)c1ccccc1	96.7
O=C(c1ccc(F)c(F)c1Nc1ccc(I)cc1F)N1CC(O)([C@@H]2CCCCN2)C1	99.9
CNC(=O)c1ccccc1Sc1ccc2c(/C=C/c3ccccn3)n[nH]c2c1	129.6

----------
- assay.notes: Long-term stability in spiked pooled human plasma
- condition.description: validation standard 2xLLOV
experimental.readout: Long-term stability, 2 month, -20°C Accuracy [%] (%)

molecular.string	reading
CC1(C)CCC(CN2CCN(c3ccc(C(=O)NS(=O)(=O)c4ccc(NCC5CCOCC5)c([N+](=O)[O-])c4)c(Oc4cnc5[nH]ccc5c4)c3)CC2)=C(c2ccc(Cl)cc2)C1	104.9
Cc1cc(Nc2ncc(Cl)c(Nc3ccccc3S(=O)(=O)C(C)C)n2)c(OC(C)C)cc1C1CCNCC1	94.4
COC(=O)c1ccc2c(c1)NC(=O)/C2=C(\Nc1ccc(N(C)C(=O)CN2CCN(C)CC2)cc1)c1ccccc1	103.8

----------
- assay.notes: Autosampler stability of ready for injection samples
- Assay type: physicochemical, human
- condition.description: validation standard MOV

compound	Autosampler (72h, 4°C) Accuracy [%] / %
CC1(C)CCC(CN2CCN(c3ccc(C(=O)NS(=O)(=O)c4ccc(NCC5CCOCC5)c([N+](=O)[O-])c4)c(Oc4cnc5[nH]ccc5c4)c3)CC2)=C(c2ccc(Cl)cc2)C1	102.3
CNC(=O)c1cc(Oc2ccc(NC(=O)Nc3ccc(Cl)c(C(F)(F)F)c3)c(F)c2)ccn1	104.4
C[C@H]1Oc2cc(cnc2N)-c2c(nn(C)c2C#N)CN(C)C(=O)c2ccc(F)cc21	100.8
CCN1CCN(Cc2ccc(Nc3ncc(F)c(-c4cc(F)c5nc(C)n(C(C)C)c5c4)n3)nc2)CC1	96.7
CNC(=O)c1ccc(N2C(=S)N(c3cnc(C#N)c(C(F)(F)F)c3)C(=O)C23CCC3)cc1F [Apalutamide]	106.0
O=c1[nH]c(=O)n([C@H]2C[C@H](O)[C@@H](CO)O2)cc1C(F)(F)F	102.7
Cc1cn(-c2cc(NC(=O)c3ccc(C)c(Nc4nccc(-c5cccnc5)n4)c3)cc(C(F)(F)F)c2)cn1	104.0

----------
- assay.notes: Short-term stability in spiked pooled human plasma (bench-top, 4 °C, 56 °C)
- condition.description: validation standard LLOV
experimental.readout: Short-time stability (24h, RT, without daylight) Accuracy [%] (%)

molecule	reading
O=C1CN2Cc3c(ccc(Cl)c3Cl)N=C2N1 [Anagrelide]	67.4
CNC(=O)c1cc(Oc2ccc(NC(=O)Nc3ccc(Cl)c(C(F)(F)F)c3)cc2)ccn1 [Sorafenib]	72.1
COc1cc2c(Nc3ccc(Br)cc3F)ncnc2cc1OCC1CCN(C)CC1 [Vandetanib]	80.3
CC(=O)Nc1cccc(-n2c(=O)n(C3CC3)c(=O)c3c(Nc4ccc(I)cc4F)n(C)c(=O)c(C)c32)c1 [Trametinib]	53.1

----------
// reported Long-term stability, 2 month, -20°C Accuracy [%] per item
- assay.notes: Long-term stability in spiked pooled human plasma
- condition.description: validation standard MOV
experimental.readout: Long-term stability, 2 month, -20°C Accuracy [%] (%)

molecule	reading
O=C1CCC(N2C(=O)c3ccccc3C2=O)C(=O)N1 (stereo not drawn) [Thalidomide]	57.0
C[C@H]1Oc2cc(cnc2N)-c2c(nn(C)c2C#N)CN(C)C(=O)c2ccc(F)cc21	93.9
C=CC(=O)Nc1cc(Nc2nccc(-c3cn(C)c4ccccc34)n2)c(OC)cc1N(C)CCN(C)C	95.2
COc1cc2c(Nc3ccc(Br)cc3F)ncnc2cc1OCC1CCN(C)CC1	105.7
Cc1cn(-c2cc(NC(=O)c3ccc(C)c(Nc4nccc(-c5cccnc5)n4)c3)cc(C(F)(F)F)c2)cn1	99.1
CNC(=O)c1ccccc1Sc1ccc2c(/C=C/c3ccccn3)n[nH]c2c1	87.7

----------
- assay.notes: Autosampler stability of ready for injection samples
- Type: physicochemical, human
- condition.description: validation standard LLOV
// reported Autosampler (72h, 4°C) Accuracy [%] per item

molecule	Autosampler (72h, 4°C) Accuracy [%]
Nc1cccc2c1CN(C1CCC(=O)NC1=O)C2=O (stereo not shown) [Lenalidomide]	95.6%
C=CC(=O)Nc1cc(Nc2nccc(-c3cn(C)c4ccccc34)n2)c(OC)cc1N(C)CCN(C)C	91.2%
CS(=O)(=O)CCNCc1ccc(-c2ccc3ncnc(Nc4ccc(OCc5cccc(F)c5)c(Cl)c4)c3c2)o1	94.4%
CCOc1cc2ncc(C#N)c(Nc3ccc(OCc4ccccn4)c(Cl)c3)c2cc1NC(=O)/C=C/CN(C)C	73.8%
O=C(c1cc(Cc2n[nH]c(=O)c3ccccc23)ccc1F)N1CCN(C(=O)C2CC2)CC1	111.2%
Cc1ccc(NC(=O)c2ccc(CN3CCN(C)CC3)cc2)cc1Nc1nccc(-c2cccnc2)n1	103.7%
C=CC(=O)N1CCC[C@@H](n2nc(-c3ccc(Oc4ccccc4)cc3)c3c(N)ncnc32)C1	95.8%
CC(=O)Nc1cccc(-n2c(=O)n(C3CC3)c(=O)c3c(Nc4ccc(I)cc4F)n(C)c(=O)c(C)c32)c1	100.1%
CNC(=O)c1cc(Oc2ccc(NC(=O)Nc3ccc(Cl)c(C(F)(F)F)c3)c(F)c2)ccn1	102.1%
O=C1CCC(N2C(=O)c3ccccc3C2=O)C(=O)N1 (stereo not shown) [Thalidomide]	98.0%
O=C1CN2Cc3c(ccc(Cl)c3Cl)N=C2N1 [Anagrelide]	110.5%
Cc1[nH]c2ccccc2c1CCNCc1ccc(/C=C/C(=O)NO)cc1	73.7%
COc1cc2c(Nc3ccc(Br)cc3F)ncnc2cc1OCC1CCN(C)CC1	83.5%
CC(C)(C)c1nc(-c2cccc(NS(=O)(=O)c3c(F)cccc3F)c2F)c(-c2ccnc(N)n2)s1	93.1%
C[C@H]1Oc2cc(cnc2N)-c2c(nn(C)c2C#N)CN(C)C(=O)c2ccc(F)cc21	94.8%
CO[C@@H]1[C@H](N(C)C(=O)c2ccccc2)C[C@H]2O[C@]1(C)n1c3ccccc3c3c4c(c5c6ccccc6n2c5c31)C(=O)NC4	108.2%

Ref: paper PMC8699473
